- experimental system: T1, human collagen type I (acid soluble, extracted from placenta, Sigma C7774) (human, UniProt P02452 162-1218; P08123 80-1119)
- T1 construct: gelled and dried as a fibril film in the assay; also called dried human collagen; h-Collagen
- T1 sequence (P02452 162-1218 limits assumed, chain 1 of 2): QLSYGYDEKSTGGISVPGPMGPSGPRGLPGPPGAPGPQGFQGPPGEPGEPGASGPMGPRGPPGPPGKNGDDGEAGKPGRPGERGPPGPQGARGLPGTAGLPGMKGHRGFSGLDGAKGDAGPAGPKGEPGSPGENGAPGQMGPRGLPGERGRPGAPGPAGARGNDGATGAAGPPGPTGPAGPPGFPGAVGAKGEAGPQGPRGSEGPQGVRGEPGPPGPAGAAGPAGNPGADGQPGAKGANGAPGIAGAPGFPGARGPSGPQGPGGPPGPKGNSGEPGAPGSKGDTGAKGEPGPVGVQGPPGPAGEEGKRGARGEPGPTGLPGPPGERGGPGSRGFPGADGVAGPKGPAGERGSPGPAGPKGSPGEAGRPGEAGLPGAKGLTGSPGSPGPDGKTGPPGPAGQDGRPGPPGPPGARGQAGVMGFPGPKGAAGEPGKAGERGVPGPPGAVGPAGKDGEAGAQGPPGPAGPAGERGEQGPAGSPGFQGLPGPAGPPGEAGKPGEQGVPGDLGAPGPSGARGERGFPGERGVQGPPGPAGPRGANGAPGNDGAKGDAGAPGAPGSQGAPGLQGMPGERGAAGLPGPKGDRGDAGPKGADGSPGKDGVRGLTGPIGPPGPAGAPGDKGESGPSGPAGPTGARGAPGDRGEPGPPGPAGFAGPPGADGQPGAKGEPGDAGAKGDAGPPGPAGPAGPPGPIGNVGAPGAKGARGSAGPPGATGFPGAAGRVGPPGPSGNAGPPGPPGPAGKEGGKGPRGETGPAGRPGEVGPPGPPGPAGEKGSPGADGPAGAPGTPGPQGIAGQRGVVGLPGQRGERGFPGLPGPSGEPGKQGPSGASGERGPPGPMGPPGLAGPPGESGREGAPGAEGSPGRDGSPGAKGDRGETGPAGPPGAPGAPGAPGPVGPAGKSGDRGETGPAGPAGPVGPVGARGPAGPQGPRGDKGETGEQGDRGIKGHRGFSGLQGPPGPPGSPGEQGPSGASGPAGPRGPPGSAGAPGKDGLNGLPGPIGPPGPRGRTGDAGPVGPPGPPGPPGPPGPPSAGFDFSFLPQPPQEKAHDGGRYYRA
- T1 sequence (P08123 80-1119 limits assumed, chain 2 of 2): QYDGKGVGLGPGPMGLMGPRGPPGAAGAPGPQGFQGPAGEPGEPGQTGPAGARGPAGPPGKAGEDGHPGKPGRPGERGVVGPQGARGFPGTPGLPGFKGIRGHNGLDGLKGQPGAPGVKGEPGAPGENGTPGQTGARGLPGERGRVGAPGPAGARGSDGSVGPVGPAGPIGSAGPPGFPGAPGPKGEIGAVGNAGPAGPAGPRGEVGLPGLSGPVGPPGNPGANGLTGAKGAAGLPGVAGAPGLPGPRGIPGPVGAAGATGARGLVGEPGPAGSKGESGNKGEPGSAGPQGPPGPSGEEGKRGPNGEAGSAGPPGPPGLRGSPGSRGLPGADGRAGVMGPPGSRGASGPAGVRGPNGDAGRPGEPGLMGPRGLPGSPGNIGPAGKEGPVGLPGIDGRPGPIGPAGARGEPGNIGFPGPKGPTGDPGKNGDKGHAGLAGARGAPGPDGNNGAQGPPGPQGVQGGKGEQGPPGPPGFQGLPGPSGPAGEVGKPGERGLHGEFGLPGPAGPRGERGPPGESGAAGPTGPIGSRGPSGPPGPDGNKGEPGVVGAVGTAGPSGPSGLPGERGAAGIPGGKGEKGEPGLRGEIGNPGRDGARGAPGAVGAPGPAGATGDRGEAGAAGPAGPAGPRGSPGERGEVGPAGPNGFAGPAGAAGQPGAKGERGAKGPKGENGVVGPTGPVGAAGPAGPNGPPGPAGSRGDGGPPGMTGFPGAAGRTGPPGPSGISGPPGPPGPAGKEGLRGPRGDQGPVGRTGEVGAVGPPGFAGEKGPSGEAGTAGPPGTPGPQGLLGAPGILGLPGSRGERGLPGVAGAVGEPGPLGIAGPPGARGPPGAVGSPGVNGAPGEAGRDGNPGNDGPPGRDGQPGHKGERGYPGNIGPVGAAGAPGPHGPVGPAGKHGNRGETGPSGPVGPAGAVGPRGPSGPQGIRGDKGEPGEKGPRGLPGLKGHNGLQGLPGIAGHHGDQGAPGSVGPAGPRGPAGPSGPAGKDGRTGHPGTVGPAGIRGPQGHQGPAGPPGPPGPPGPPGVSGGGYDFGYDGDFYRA
- assay comment: dried collagen assay
Bridge positions count the residues as written; N and C are the ends. Ends that are not written are not given here.
Criterion: % bound strictly under 10%. Met: T. Not met: F.

binder: SWHCALVENSWQCSEA (disulfide 4-13 (inferred)) [SEQ ID NO: 73]
class: T

Regarding DWTCYGDEYTWHCNYE (disulfide 4-13 (inferred)) [SEQ ID NO: 15] , kindly confirm whether its % bound is beneath 10%.
F

Then AWFCSQKNRLWSCGET (disulfide 4-13 (inferred)) [SEQ ID NO: 49] ?
F

Then WTDCQWMDEQLWTCRWD (disulfide 4-14 (inferred)) [SEQ ID NO: 94] ?
F

Then SWHCALMGSRWVCGQN (disulfide 4-13 (inferred)) [SEQ ID NO: 71] ?
T
